mass density listing for selected compounds.
Conditions: 298.15 K; 101.33 kPa; Liquid; Pycnometric method
I only need the number, in kg/m3, no unit after it.

The cases that follow already have their mass density on record.
CCC(C)Cl (stereo unspecified) :: 867.37
C1CCOC1 [tetrahydrofuran] :: 881.95
CC(C)(C)Cl :: 836.45
CC(C)CCl :: 871.13

Data point: C1CCOCC1 [tetrahydropyran] ; mass density = 878.81

// field: mass density; key: CCCCCl ; value = 880.69
